Reference source for all entries: ChEMBL document CHEMBL6083261

target: Replicase polyprotein 1ab (Severe acute respiratory syndrome coronavirus 2) (UniProt P0DTD1); experiment: Inhibition of SARS-CoV-2 N/C terminal 6his tagged 3CL protease extracted from Escherichia coli BL21(DE3) using CA-AVLQSGFR-Lys(Dnp)-Lys-NH2 as fluorescent substrate preincubated for 1 hr followed by substrate addition and measured after 20 mins by FRET analysis relative to control; parameters: concentration or dose not given beside the values; conditions: time 80.0 min
RESULT_TYPE: inhibition

Consider the following illustrative entries.
| CPD_SMILES | inhibition |
| --- | --- |
| OC1CCN(C(=S)SSc2ccc(C(F)(F)F)cc2)CC1 | > 95% |
| COc1ccc(SSC(=S)N2CCC(O)CC2)cc1 | > 95% |
| OC1CCN(C(=S)SSc2ccc(F)cc2)CC1 | > 95% |
| Oc1ccc(SSC(=S)N2CCC(O)CC2)cc1 | > 95% |
| OC1CCN(C(=S)SSCc2ccccc2)CC1 | > 95% |

[Q] In one line, give reported inhibition of the entry OC1CCN(C(=S)SSc2ccccc2)CC1 .
[A] > 95%

[Q] Fill in inhibition for record COC(=O)CCSSC(=S)N1CCC(O)CC1
[A] > 95%

[Q] Fill in inhibition for record O=[N+]([O-])c1ccc(SSC(=S)N2CCC(O)CC2)cc1
[A] > 95%

----------
molecular target: Replicase polyprotein 1ab (Severe acute respiratory syndrome coronavirus 2, UniProt P0DTD1); experiment: Inhibition of SARS-CoV-2 N/C terminal 6his tagged 3CL protease extracted from Escherichia coli BL21(DE3) using CA-AVLQSGFR-Lys(Dnp)-Lys-NH2 as fluorescent substrate preincubated for 1 hr followed by substrate addition and measured after 20 mins by FRET analysis
Reported pIC50 values for a set of compounds
Please note pIC50 is a logarithmic value: minus log10 of concentration in mol/L. Answer with that number alone.

In the examples that follow, each entry is paired with its recorded pIC50.
| COMPOUND | REPORTED_RESULT |
| --- | --- |
| OC1CCN(C(=S)SSC(=S)N2CCC(O)CC2)CC1 | 6.04 |
| S=C(SSC(=S)N1CCCC1)N1CCCC1 [BIS(PYRROLIDINYLTHIOCARBONYL)DISULFIDE] | 5.87 |
| O=[N+]([O-])c1ccc(SSC(=S)N2CCC(O)CC2)cc1 | 6.62 |

For the next question, use this compound.
[Q] Check the records and state pIC50 for OC1CCN(C(=S)SSc2ccc(C(F)(F)F)cc2)CC1
[A] 6.85

----------
target: Replicase polyprotein 1ab (Severe acute respiratory syndrome coronavirus 2, UniProt P0DTD1); assay: Inhibition of SARS-CoV-2 PL protease
RESULT_TYPE: pIC50
Expect pIC50 as a plain number equal to -log10 of the molar concentration.

Examples from the recorded data:
| COMPOUND | pIC50 |
| --- | --- |
| S=C(SSC(=S)N1CCCCC1)N1CCCCC1 [BIS(PIPERIDINYLTHIOCARBONYL)DISULFIDE] | 7.15 |
| COc1ccc(SSC(=S)N2CCC(O)CC2)cc1 | 6.82 |
| OC1CCN(C(=S)SSC(=S)N2CCC(O)CC2)CC1 | 6.24 |
| OC1CCN(C(=S)SSCc2ccccc2)CC1 | 6.48 |
| S=C(SSc1ccccc1)N1CCCCC1 | 5.60 |

[Q] Output pIC50 of O=[N+]([O-])c1ccc(SSC(=S)N2CCC(O)CC2)cc1
[A] 6.49

[Q] Identify pIC50 associated with the compound S=C(SSc1ccccc1)N1CCOCC1
[A] 5.76

[Q] Please indicate pIC50 recorded for S=C(SSc1ccccc1)N1CCCC1
[A] 6.66

[Q] Consider the compound COC(=O)C1CCCN1C(=S)SSc1ccccc1 (stereo not drawn) and give its recorded pIC50.
[A] 6.41

[Q] Give a short answer stating reported pIC50 for Oc1ccc(SSC(=S)N2CCC(O)CC2)cc1 .
[A] 5.11
